Test: NCI Yeast Anticancer Drug Screen. Data for the rad50 strain (AID 155);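 also: 0% = growth of vehicle-only cultures of the same strain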
Conditions: S. cerevisiae rad50 strain growth inhibition; at 50.0 µM; stronger effect = higher value
Description: Growth inhibition of yeast strains with defined genetic alterations is measured as a screen for potential anti-cancer activity. Selected strains with alterations in DNA damage repair or cell cycle control were exposed to compounds and growth inhibition was measured relative to vehicle treated controls. The strain used in this assay is rad50
The panel holds about 79,000 compounds, 15% with a hit somewhere; the sample as a whole holds those more often. Calls of active or inactive are those of the source. Rule as the data show it: active = growth inhibition above about 70%; inactive = the rest.
Could you please report measured growth inhibition for the items listed next?

[Q] Give recorded growth inhibition. Cc1cc(CCl)cc(=O)[nH]1
[A] -9.75% (inactive)

[Q] Give recorded growth inhibition. Cc1ccccc1/C(=C/c1ccc([N+](=O)[O-])cc1)C(=O)Nc1ccc(S(=O)(=O)F)cc1
[A] 97.1% (active)

[Q] Give recorded growth inhibition. CN(CCC(=O)O)C1=Nc2ccc(Cl)cc2C(c2ccccc2)=[N+]([O-])C1
[A] 1.75% (inactive)

[Q] Give recorded growth inhibition. CC1CCCCN1 (centres undefined)
[A] 5.35% (inactive)

[Q] Give recorded growth inhibition. N#CC(N)c1ccccc1 (centres undefined)
[A] 13.7% (inactive)

[Q] Give recorded growth inhibition. O=C1C(Br)=CC2(C=C1Br)CCN=c1c(O)c3c(c(O)c12)=NC=N3
[A] 27.3% (inactive)

[Q] Give recorded growth inhibition. CN1C(=O)c2ccccc2NC(=O)C12OC2c1ccccc1 (centres undefined)
[A] -0.1% (inactive)

[Q] Give recorded growth inhibition. CNC(=O)CCl
[A] 5.65% (inactive)

[Q] Give recorded growth inhibition. Cc1cc(C)c(O)c(C)c1
[A] 10.2% (inactive)

[Q] Give recorded growth inhibition. CS(=O)(=O)C(Cl)Cl
[A] -1.5% (inactive)

[Q] Give recorded growth inhibition. CSP(N)(=O)OC(C)C (centres undefined)
[A] -16.9% (inactive)

[Q] Give recorded growth inhibition. O=c1ccc2c(O)c3ccoc3cc2o1
[A] -14.7% (inactive)

[Q] Give recorded growth inhibition. CN(C)C1CCNCC1
[A] 19.7% (inactive)

[Q] Give recorded growth inhibition. [C-]#[O+].[C-]#[O+].[C-]#[O+].[C-]#[O+].[Cr].c1ccc([PH+](CC[PH+](c2ccccc2)c2ccccc2)c2ccccc2)cc1
[A] 11.7% (inactive)

[Q] Give recorded growth inhibition. C/C=C/C(=O)[O-].C/C=C/C(=O)[O-].N.N.N.N.[Co+3].[O-][Cl+3]([O-])([O-])[O-]
[A] 0.2% (inactive)

[Q] Give recorded growth inhibition. O=C(COc1ccc(Cl)cc1)Nc1ccc(Cl)cc1C(=O)c1ccccc1
[A] -15.8% (inactive)

[Q] Give recorded growth inhibition. C[N+]1([O-])C2CCC1CC(OC(=O)C(O)c1ccccc1)C2 (centres undefined)
[A] 1.45% (inactive)

[Q] Give recorded growth inhibition. Cc1ccc(S(=O)(=O)OCCN2CC2)cc1
[A] -12% (inactive)

[Q] Give recorded growth inhibition. O=S(=O)(F)c1ccccc1C[P+](c1ccccc1)(c1ccccc1)c1ccccc1
[A] 84.2% (active)

[Q] Give recorded growth inhibition. CC1[N-]C(/C=N/O)NC(C)N1.CC1[N-]C(/C=N/O)NC(C)N1.[Br][Ni+2][Br] (centres undefined)
[A] -14.9% (inactive)

[Q] Give recorded growth inhibition. CCCCCCCCCCP(=O)(O)O
[A] -4.9% (inactive)

[Q] Give recorded growth inhibition. CN(C)c1ccc(/C=C/C=C\C2=CC(=C\C=C/C=C3C=CC(=[N+](C)C)C=C3)/Sc3ccccc32)cc1
[A] -36.4% (inactive)

[Q] Give recorded growth inhibition. O=C(Nc1cc(Cl)c(Cl)cc1Cl)C(=O)C1C(=O)NC(=S)NC1=O
[A] 0.35% (inactive)

[Q] Give recorded growth inhibition. O=P(Nc1ccc2ccccc2c1)(Nc1ccc2ccccc2c1)N(CCCl)CCCl
[A] -4.3% (inactive)
